# test protocol: chemical genetic growth profiling, strain panel (AID 1159580);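 further: tested at 20 µM; growth read once vehicle control cultures reached saturation at 30 °C; 1 = growth at the plate median or of vehicle wells; lower values mean less growth of the strain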
# test parameters: S. cerevisiae deletion strains, growth OD, locus YDR363W, strain ESC2, stronger effect = lower value
Out of some 5,500 compounds screened, about 2,000 (36%) were called active. Inconclusive results (about 18%) are left out. This is one part of the list.
observed property: normalized growth

- C#CCN(C)CCCOc1ccc(Cl)cc1Cl: 0.991
- N[C@@H](Cc1c[nH]c2ccc(O)cc12)C(=O)O: 1.01
- N[C@@H](Cc1ccc(F)cc1)C(=O)O: 1.01
- CN1C[C@H](CNC(=O)OCc2ccccc2)C[C@@H]2c3cccc4c3c(cn4C)C[C@H]21: 1.01
- CCN1CCC[C@H]1CNC(=O)c1c(OC)ccc(I)c1O: 1.01
- Cc1nc2n(c(=O)c1CCN1CCC(c3noc4cc(F)ccc34)CC1)CCCC2: 0.988

###

Here, each record is paired with measured normalized growth data.
# test protocol: chemical genetic growth profiling, strain panel (AID 1159580)
# test parameters: S. cerevisiae deletion strains, growth OD, locus YDL134C, strain PPH21, stronger effect = lower value
Out of some 5,500 compounds screened, about 2,000 (36%) were called active. Not shown: some 18% with an inconclusive outcome. The list shows a part of the results. Where a SMILES comes first, the peptide text is derived from it.
observed property: normalized growth

* Cc1cccc(Nc2ccncc2S(=O)(=O)NC(=O)NC(C)C)c1 | 1 (inactive)
* CCCCCC1C(=O)CCC1CC(=O)OC (stereo unspecified) | 1.01 (inactive)
* C[C@H](CCC(=O)O)[C@H]1CCC2C3C(CC[C@@]21C)[C@@]1(C)CC[C@@H](O)C[C@H]1C[C@@H]3O (stereo partly specified) | 0.981 (inactive)
* C[C@]12C=CC(=O)C=C1CCC1C3C[C@@H](O)[C@](O)(C(=O)CO)[C@@]3(C)C[C@H](O)[C@@]12F (stereo partly specified) | 1 (inactive)
* c1ccc2c(c1)CN1CCCC1=N2 | 1.01 (inactive)
* N#C/C(=C\c1cccc(O)c1)C(=O)O | 0.992 (inactive)
* NCCCCC(N)C(=O)NC(Cc1ccc(O)cc1)C(=O)NC(CCCCN)C(=O)O (stereo not drawn) (H-Lys-Tyr-Lys-OH; configuration not given here) | 1.01 (inactive)
* CO[C@]12C[C@@H](COC(=O)c3cncc(Br)c3)CN(C)[C@@H]1Cc1cn(C)c3cccc2c13 | 0.995 (inactive)
* COc1c(Cl)ccc(Cl)c1C(=O)O | 1.01 (inactive)
* C=C[C@H]1CN2CC[C@H]1C[C@@H]2[C@H](O)c1ccnc2ccccc12 | 0.997 (inactive)
* OC1=Cc2c(O)cc(O)cc2OC1(O)c1ccc(O)c(O)c1 (stereo unspecified) | 0.975 (inactive)

###

# test protocol: chemical genetic growth profiling, strain panel (AID 1159580)
# test parameters: S. cerevisiae deletion strains, growth OD, locus YOR136W, strain idh2, stronger effect = lower value
The whole screen tested about 5,500 compounds, of which about 2,000 (36%) were called active. Roughly 18% stayed inconclusive and do not appear here. This is one part of the list.
observed property: normalized growth

- CN(C)CCOC(=O)COc1ccc(Cl)cc1: 1.03
- Cc1nc2sccn2c(=O)c1CCN1CCC(=C(c2ccc(F)cc2)c2ccc(F)cc2)CC1: 0.94
- CCCCSP(=O)(SCCCC)SCCCC: 1

###

# test protocol: chemical genetic growth profiling, strain panel (AID 1159580)
# test parameters: S. cerevisiae deletion strains, growth OD, locus YOR070C, strain gyp1, stronger effect = lower value
Hit rate of the full screen: of about 5,500 compounds, about 2,000 (36%) were called active. Another 18% or so got no clear call; they are omitted. This is one part of the list.
observed property: normalized growth

- CCN(CC)CCOC(=O)C(c1ccccc1)c1ccccc1: 0.974
- CNCCCN1c2ccccc2CCc2ccccc21: 1.01
- O=c1[nH]cnc2[nH]ncc12: 0.996
- CN(C)CCOC(=O)COc1ccc(Cl)cc1: 0.984

###

Here, each record is paired with measured normalized growth data.
# test protocol: chemical genetic growth profiling, strain panel (AID 1159580)
# test parameters: S. cerevisiae deletion strains, growth OD, locus YLL026W, stronger effect = lower value
Among all 5,500 compounds or so, about 2,000 (36%) were called active. About 18% were inconclusive and are not listed. Some of the results follow.
observed property: normalized growth

• Nc1cc(C(Cl)=C(Cl)Cl)c(S(N)(=O)=O)cc1S(N)(=O)=O = 1.02
• O=c1cc(-c2ccccc2)oc2cccc(O)c12 = 0.972
• CSc1ccc2c(c1)N(CCC1CCCCN1C)c1ccccc1S2 (centres undefined) = 0.981
• C/C=C/C(=O)N(CC)c1ccccc1C = 1.01

###

Here, each record is paired with measured normalized growth data.
# test protocol: chemical genetic growth profiling, strain panel (AID 1159580);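 further: tested at 20 µM; growth read once vehicle control cultures reached saturation at 30 °C; 1 = growth at the plate median or of vehicle wells; lower values mean less growth of the strain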
# test parameters: S. cerevisiae deletion strains, growth OD, locus YHR200W, strain rpn10, stronger effect = lower value
In all, about 5,500 compounds went through this assay and about 2,000 (36%) were called active. Roughly 18% stayed inconclusive and do not appear here. Some of the results follow.
observed property: normalized growth

* Clc1ccc2c(c1)C(N1CCNCC1)=Nc1ccccc1O2 | 0.992
* COc1cc(OC)c(OC)cc1C=O | 0.978
* CC12CC3CC(C)(C1)CC(N)(C3)C2 | 1
* CNC(=O)Oc1ccc2c(c1)[C@]1(C)CCN(C)[C@@H]1N2C | 1.01
* CNCCCN1c2ccccc2CCc2ccccc21 | 1.01
* C=C[C@H]1CN2CC[C@H]1C[C@@H]2[C@H](O)c1ccnc2ccccc12 | 0.994
* CCN(CCCc1ccccc1)CCCc1ccccc1 | 1.02

###

# test protocol: chemical genetic growth profiling, strain panel (AID 1159580);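 further: tested at 20 µM; growth read once vehicle control cultures reached saturation at 30 °C; 1 = growth at the plate median or of vehicle wells; lower values mean less growth of the strain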
# test parameters: S. cerevisiae deletion strains, growth OD, locus YLR262C, strain YPT6, stronger effect = lower value
Among all 5,500 compounds or so, about 2,000 (36%) were called active. Another 18% or so got no clear call; they are omitted. This is one part of the list.
Here, each record is paired with measured normalized growth data.
observed property: normalized growth

• O=c1cc(-c2ccccc2)oc2cc(O)cc(O)c12 = 0.684
• O=c1cc(-c2ccccc2)oc2cc(O)c(O)c(O)c12 = 0.375
• CC(CN1c2ccccc2Sc2ccccc21)N(C)C (stereo unspecified) = 1.34
• Cc1ccc2c(c1)N(CCO)C(C)(C)CC2C (stereo unspecified) = 0.955
• O=C(Nc1nccs1)c1ccc([N+](=O)[O-])cc1 = 0.917
• Cc1c(S(=O)(=O)c2ccc(Cl)cc2)csc1S(=O)(=O)N/N=C\c1c(Cl)cccc1Cl = 1
• COc1cc2c(cc1/C=C/C(=O)c1cc(OC)c(OC)cc1OC)OCO2 = 1.01
• Cc1cc(O)c(C=O)c2c1C(=O)Oc1c(COC(=O)/C=C/C(=O)O)c(O)c(C(=O)O)c(C)c1O2 = 0.936
• CC(=O)Nc1nnc(S(N)(=O)=O)s1 = 0.321
• CCc1ccccc1NC(C)=O = 1.06
• C[C@@H]1CC2C3C[C@H](F)C4=CC(=O)C=C[C@]4(C)[C@@]3(F)[C@@H](O)C[C@]2(C)[C@@]1(O)C(=O)COC(=O)C(C)(C)C (stereo partly specified) = 0.977
• O=C(Nc1ccccc1)c1ccccc1O = 0.945
• CC(=O)OCC(=O)[C@@]1(O)[C@H](OC(C)=O)CC2C3CCC4=CC(=O)C=C[C@]4(C)[C@@]3(F)[C@@H](O)C[C@@]21C (stereo partly specified) = 0.974
• O=c1[nH]cnc2[nH]ncc12 = 1.04
• CC(=O)N=c1sc(S(N)(=O)=O)nn1C = 1.04
• N#Cc1cccc(Cn2c(=O)oc3ccccc32)c1 = 1.01

###

Here, each record is paired with measured normalized growth data.
# test protocol: chemical genetic growth profiling, strain panel (AID 1159580);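 further: tested at 20 µM; growth read once vehicle control cultures reached saturation at 30 °C; 1 = growth at the plate median or of vehicle wells; lower values mean less growth of the strain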
# test parameters: S. cerevisiae deletion strains, growth OD, locus YDL185W, strain tfp1, stronger effect = lower value
Screen size: about 5,500 compounds; about 2,000 (36%) were called active. Another 18% or so got no clear call; they are omitted. The list shows a part of the results.
observed property: normalized growth

• NC(N)=NCCC[C@@H](NC(=O)[C@@H](N)Cc1ccc(O)cc1)C(=O)O = 1.01
• CC(CCC(=O)O)[C@H]1CCC2C3C(C[C@H](O)[C@@]21C)[C@@]1(C)CC[C@@H](O)C[C@H]1C[C@H]3O (some centres undefined) = 1
• CC1=C2[C@H]3OC(=O)[C@@H](C)[C@@H]3CC[C@@]2(C)C=CC1=O = 1.02
• COC(=O)CCC(C)[C@H]1CCC2C3C(C[C@H](O)[C@@]21C)[C@@]1(C)CC[C@@H](O)C[C@H]1C[C@H]3O (some centres undefined) = 1.02
